experiment: chemical genetic growth profiling, strain panel (AID 1159580);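 further: tested at 20 µM; growth read once vehicle control cultures reached saturation at 30 °C; 1 = growth at the plate median or of vehicle wells; lower values mean less growth of the strain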; conditions: S. cerevisiae deletion strains, growth OD, locus YDR297W, strain sur2, active compounds read low
Hit rate of the full screen: of about 5,500 compounds, about 2,000 (36%) were called active. Another 18% or so got no clear call; they are omitted. This is one part of the list.
Provide the recorded normalized growth for the entries that follow.
Answers are plain numbers.

CN1CCN(CC(=O)N2c3ccccc3C(=O)Nc3cccnc32)CC1 ... 1.01
CC[C@H]1CN2CCc3cc(OC)c(OC)cc3C2C[C@@H]1CC1NCCc2cc(OC)c(OC)cc21 (stereo partly specified) ... 0.979
OCc1c[nH]c2ccccc12 ... 0.956
CC(=O)Oc1cccc2c1C(=O)c1c(OC(C)=O)cc(C(=O)O)cc1C2=O ... 0.913
c1ccc2c(Cc3c[nH]c4ccccc34)c[nH]c2c1 ... 0.704

We next turn to a different compound, shown below.
Give reported normalized growth value for CC(=O)N[C@@H](Cc1c[nH]c2ccccc12)C(=O)O 0.994

---

test: chemical genetic growth profiling, strain panel (AID 1159580);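 further: tested at 20 µM; growth read once vehicle control cultures reached saturation at 30 °C; 1 = growth at the plate median or of vehicle wells; lower values mean less growth of the strain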; details: S. cerevisiae deletion strains, growth OD, locus YJR066W, strain TOR1, active compounds read low
About 2,000 (36%) of roughly 5,500 compounds were called active. Inconclusive results (about 18%) are left out. This is one part of the list.
readout_type: normalized growth
Numbers only.

As a guide, the following entries are already answered.
S=C(N/N=C\c1cccs1)NC1CC2CCC1C2 (configuration not stated) ... 0.908
O=C(Nc1cccnc1)c1cc2c(s1)-c1ccccc1CC2 ... 0.532
COc1cc2c(cc1OC)[C@@H]1C(=O)c3ccc4c(c3O[C@@H]1CO2)CC(C(C)C)O4 (some centres not stated) ... 0.987
COc1cc2c(cc1O)CCNC2C (configuration not stated) ... 0.982
NCCc1cc(O)c(O)cc1O ... 0.919
O=C(OC[C@H]1O[C@H](OC(=O)c2cc(O)c(O)c(OC(=O)c3cc(O)c(O)c(O)c3)c2)[C@H](OC(=O)c2cc(O)c(O)c(OC(=O)c3cc(O)c(O)c(O)c3)c2)[C@@H](OC(=O)c2cc(O)c(O)c(OC(=O)c3cc(O)c(O)c(O)c3)c2)[C@@H]1OC(=O)c1cc(O)c(O)c(OC(=O)c2cc(O)c(O)c(O)c2)c1)c1cc(O)c(O)c(OC(=O)c2cc(O)c(O)c(O)c2)c1 ... 0.967

Entry CC(=O)[O][Hg][c]1ccccc1 needs its normalized growth filled in; supply it. 0.00688

---

experiment: chemical genetic growth profiling, strain panel (AID 1159580);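 further: tested at 20 µM; growth read once vehicle control cultures reached saturation at 30 °C; 1 = growth at the plate median or of vehicle wells; lower values mean less growth of the strain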; details: S. cerevisiae deletion strains, growth OD, locus YKL160W, strain elf1, active compounds read low
The campaign covered roughly 5,500 compounds. About 2,000 (36%) were called active. About 18% were inconclusive and are not listed. The list shows a part of the results.
Can you tell me normalized growth for the items I'm about to list?
Answers are plain numbers.

Solved cases below.
CC(=O)O[C@H]1CC[C@]2(C)C3CC[C@@]4(C)C(CC5O[C@@]6(CCC(C)CO6)[C@@H](C)C54)C3CC[C@@H]2C1 (some centres not stated) ... 1.01
Cc1onc(-c2ccccc2Cl)c1C(=O)N[C@@H]1C(=O)N2[C@@H]1SC(C)(C)[C@@H]2C(=O)O ... 1.02
COc1cccc(OC)c1C(=O)N[C@@H]1C(=O)N2[C@@H]1SC(C)(C)[C@@H]2C(=O)O ... 0.978
CCNc1nc(Cl)nc(NCC)n1 ... 1
CC[C@@H](CO)NC(=O)[C@@H]1C=C2c3cccc4[nH]cc(c34)C[C@H]2N(C)C1 ... 0.982

Give me normalized growth for each of these molecules, listed below.
1. CC1(C)C(=O)[C@@H]2C[C@@]3(O)C4=CC(=O)O[C@@H](c5ccoc5)[C@]4(C)CCC3[C@@](C)(C2=O)[C@H]1CC(=O)O (some centres not stated)
2. CC1(C)S[C@@H]2[C@H](NC(=O)[C@H](C(=O)O)c3cccs3)C(=O)N2[C@H]1C(=O)O

1.01
1.01
